target: first-generation H3 LAH construct H3frThrST (Influenza A virus (H3)); assay: ELISA, supernate
OUTCOME_MEASURE: OD (OD)
Report the value in OD with no unit label.

- mAb 5J8 (antibody, V domains shown) VH: EVQLVESGPGLVKPSDILSLTCAVSGYSISSNYYWGWIRQPPGKGLEWIGSIYHSGSTYYKPSLESRLGISVDTSKNQFSLKLSFVSAADTAVYYCARHVRSGYPDTAYYFDKWGQGTLVTVS VL: SYVLTQPPSVSVAPGETARISCGGNNIGTKVLHWYQQTPGQAPVLVVYDDSDRPSGIPERFSGSNSGNTATLTISRVEVGDEADYYCQVWDISTDQAVFGGGTKLTVLG: 0.083
- mAb 2K11 (antibody, V domains shown) VH: EVQLVESGGGLVQPGGSLRLSCVASTFSLINYWMTWVRQAPGKGLEWVANIKQDGFEKYYVDSVKGRFTISRDNAKNSLYLQMNSLRVEDTAVYYCARQGSYADTYFYHYGMDVWGQGTTVTVS VL: QSALTQPPSVSGAPGQRVTISCTGSSSNIGAGYDAYWYQQLPGTAPKLLIYGNSNRLSGVPDRFSASKSGTSASLAITGLQAEDEADYYCQSYDSSLSIFGGGTKLTVLR: 0.072

Kindly consider the entry below.
// OD lookup, binder = mAb 2O10 (antibody, V domains shown) VH: EVQLVESGGGLVQPGGSLRLSCAASGFTFNSYWMTWVRQAPGKGLEWVANINQDGSEKFFVDSVKGRFTISRDNAKTSLYLQMNSLRVEDTAVYYCAREGAPYDTYYYYYAMDVWGQGTTVTVS VL: QSVLTQPPSVSGAPGQRVTISCTGTSSNIGAGYGVHWYQQLPGAAPKLLVYGNSNRPSGVPDRFSGSKSGTSASLAITGLQAEDEADYYCQSYDISLSGSNVFGTGTKVTVLG , result: 0.074
